test system: CP237; experiment: qHTS profiling for inhibitors of Plasmodium falciparum proliferation (AID 504749); further: nearly all actives have a fitted effect of over 60% in size; details: P. falciparum in erythrocytes, SYBR Green DNA, 72 h; series mostly up to 28.7 µM
Inconclusive results are not listed. Active and inactive are the calls of the source. The call rests on the fitted dose curve; in most records, active means well fitted inhibition curve with a large enough effect; inconclusive means small, poorly fitted or top-dose-only effect; inactive means flat fitted curve, though single readings scatter.
Your answer must be one of the following: active, inactive

Qu. Could you check what this test reported for `Cc1ncc(CO)c(C=O)c1O` ?
Ans. inactive

Qu. Could you check what this test reported for Cc1ccccc1OCC(O)CO (stereo unspecified) ?
Ans. inactive

Qu. Could you check what this test reported for `NCCNC(=O)c1ccc(Cl)cn1` ?
Ans. inactive

Qu. Could you check what this test reported for `N=C(N)N1CCc2ccccc2C1` ?
Ans. inactive

Qu. Could you check what this test reported for `O[C@@H](c1cc(C(F)(F)F)nc2c(C(F)(F)F)cccc12)[C@H]1CCCCN1` ?
Ans. active

Qu. Could you check what this test reported for C[N+]1(CC2COC(c3ccccc3)(C3CCCCC3)O2)CCCCC1 (stereo unspecified) ?
Ans. active

Qu. Could you check what this test reported for `COc1cc(C(=O)N2CCCCCCC2)cc(OC)c1OC` ?
Ans. inactive

Qu. Could you check what this test reported for `Oc1c(Cl)cc(Cl)c(Cl)c1Cc1c(O)c(Cl)cc(Cl)c1Cl` ?
Ans. active

Qu. Could you check what this test reported for `CC(=O)Nc1ccc(CC(=O)O)cc1` ?
Ans. inactive

Qu. Could you check what this test reported for `CCc1oc2ccccc2c1C(=O)c1cc(Br)c(O)c(Br)c1` ?
Ans. inactive

Qu. Could you check what this test reported for `CCCCCCCCCCCCCCCCO` ?
Ans. inactive

Qu. Could you check what this test reported for `CCCCCCCCCCCCSCCOCCO` ?
Ans. inactive

Qu. Could you check what this test reported for `CCCCNc1ccc(C(=O)OCCOCCOCCOCCOCCOCCOCCOCCOCCOC)cc1` ?
Ans. inactive

Qu. Could you check what this test reported for `CN(C)CCC[C@@]1(c2ccc(F)cc2)OCc2cc(C#N)ccc21` ?
Ans. inactive

Qu. Could you check what this test reported for `Cn1c(=O)c2[nH]c(Br)nc2n(C)c1=O` ?
Ans. inactive

Qu. Could you check what this test reported for `C#C[C@]1(O)CC[C@H]2[C@@H]3CCC4=Cc5oncc5C[C@]4(C)[C@H]3CC[C@@]21C` ?
Ans. inactive

Qu. Could you check what this test reported for FC1(F)C(F)(F)C(F)(F)C2(F)C(F)(F)C(F)(F)C(F)(F)C(F)(F)C2(F)C1(F)F (stereo unspecified) ?
Ans. inactive

Qu. Could you check what this test reported for `CCN(CC)CCNC(=O)c1cc(Br)c(N)cc1OC` ?
Ans. inactive

Qu. Could you check what this test reported for `CCN(CC)CCNc1ccc(CO)c2sc3ccccc3c(=O)c12` ?
Ans. active

Qu. Could you check what this test reported for O=C1C(=O)c2ccccc2C(O)=C1C1CCC(c2ccc(Cl)cc2)CC1 (stereo unspecified) ?
Ans. active

Qu. Could you check what this test reported for `Oc1ccccc1C=NCc1ccccc1` ?
Ans. inactive

Qu. Could you check what this test reported for `C#C[C@]1(O)CC[C@H]2[C@@H]3CCC4=CC(=O)CC[C@@H]4[C@H]3CC[C@@]21CC` ?
Ans. active

Qu. Could you check what this test reported for `FC(F)(F)C(F)(F)C(F)(F)C(F)(F)C(F)(F)C(F)(F)C(F)(F)C(F)(F)Br` ?
Ans. inactive

Qu. Could you check what this test reported for `OC[C@H]1O[C@@H]2O[C@H]3[C@H](O)[C@@H](O)[C@@H](O[C@H]4[C@H](O)[C@@H](O)[C@@H](O[C@H]5[C@H](O)[C@@H](O)[C@@H](O[C@H]6[C@H](O)[C@@H](O)[C@@H](O[C@H]7[C@H](O)[C@@H](O)[C@@H](O[C@H]8[C@H](O)[C@@H](O)[C@@H](O[C@H]1[C@H](O)[C@H]2O)O[C@@H]8CO)O[C@@H]7CO)O[C@@H]6CO)O[C@@H]5CO)O[C@@H]4CO)O[C@@H]3CO` ?
Ans. inactive

Qu. Could you check what this test reported for `CCN(CC)CCNC(=O)COc1ccc(OC)cc1` ?
Ans. inactive

Qu. Could you check what this test reported for CC(C)(Cc1c[nH]c2ccccc12)NCC(O)COc1ccccc1C#N (stereo unspecified) ?
Ans. active

Qu. Could you check what this test reported for `CCNC(=O)/C=C/c1cccc(Br)c1` ?
Ans. inactive

Qu. Could you check what this test reported for `CCOC(=O)C(C#N)=C(c1ccccc1)c1ccccc1` ?
Ans. inactive

Qu. Could you check what this test reported for `CNCCc1ccccn1` ?
Ans. inactive

Qu. Could you check what this test reported for `CC(=O)OC[C@H]1O[C@@H](n2ncc(=O)[nH]c2=O)[C@H](OC(C)=O)[C@@H]1OC(C)=O` ?
Ans. inactive

Qu. Could you check what this test reported for `CC(C)(C)NC[C@H](O)COc1nsnc1N1CCOCC1` ?
Ans. active

Qu. Could you check what this test reported for `CN1CCc2cccc3c2[C@H]1Cc1ccc(O)c(O)c1-3` ?
Ans. active

Qu. Could you check what this test reported for `CCOCCn1c(N2CCCN(C)CC2)nc2ccccc21` ?
Ans. active

Qu. Could you check what this test reported for `CC(C)Nc1cccnc1N1CCN(C(=O)c2cc3cc(NS(C)(=O)=O)ccc3[nH]2)CC1` ?
Ans. inactive

Qu. Could you check what this test reported for `O=C(O)Cc1csc(-c2ccc(Cl)cc2)n1` ?
Ans. inactive

Qu. Could you check what this test reported for CCCCC(CC)COC(=O)c1ccc(N(C)C)cc1 (stereo unspecified) ?
Ans. inactive

Qu. Could you check what this test reported for `CCCCCCCCCCCCOCCOCCOCCOCCOCCOCCOCCOCCOCCO` ?
Ans. inactive

Qu. Could you check what this test reported for `Cc1ccc(O)c([C@H](CCN(C(C)C)C(C)C)c2ccccc2)c1` ?
Ans. active

Qu. Could you check what this test reported for `COc1cc(C)nc(-n2nc(C)cc2OC)n1` ?
Ans. inactive

Qu. Could you check what this test reported for `CC(=O)N[C@@H](CCC(=O)O)C(=O)O` ?
Ans. inactive

Qu. Could you check what this test reported for `CCCCN=C(N)N=C(N)N` ?
Ans. inactive

Qu. Could you check what this test reported for `Nc1ccc(S(=O)(=O)Nc2cnc3ccccc3n2)cc1` ?
Ans. inactive

Qu. Could you check what this test reported for Cc1cc(C)cc(OCC2CNC(=O)O2)c1 (stereo unspecified) ?
Ans. inactive

Qu. Could you check what this test reported for CCCCCCCCNC(C)C(O)c1ccc(SC(C)C)cc1 (stereo unspecified) ?
Ans. active

Qu. Could you check what this test reported for `O=S(c1cc(Cl)cc(Cl)c1O)c1cc(Cl)cc(Cl)c1O` ?
Ans. active

Qu. Could you check what this test reported for `OCc1ccccn1` ?
Ans. inactive
